ASSAY: Stability of linkers L1-L4 conjugated to FGF21 (LC-MS)
Assay type: physicochemical
ASSAY_SETUP: +4° C., 0 hrs
Parameter: +(2) H2O. Scope: all listed entries.
Numbers only; they are read as %.

Look over these answered cases.
>>> reported_measurement("L3-FGF21ΔH-A129C: Linker-3 conjugated to FGF21ΔH-A129C protein (Table 4; Table 5 row L3) (conjugate, UniProt Q9NSA1 29-209, looked up, variant H1* A129C, Linker-3 attached) Fibroblast growth factor 21: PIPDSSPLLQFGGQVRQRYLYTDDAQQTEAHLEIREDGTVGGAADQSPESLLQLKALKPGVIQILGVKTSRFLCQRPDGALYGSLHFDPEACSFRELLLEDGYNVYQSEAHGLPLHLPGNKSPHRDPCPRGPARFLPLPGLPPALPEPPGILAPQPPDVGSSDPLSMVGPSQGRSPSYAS")
6
>>> reported_measurement("L2-FGF21ΔH-A129C: Linker-2 conjugated to FGF21ΔH-A129C protein (Table 4; Table 5 row L2) (conjugate, UniProt Q9NSA1 29-209, looked up, variant H1* A129C, Linker-2 attached) Fibroblast growth factor 21: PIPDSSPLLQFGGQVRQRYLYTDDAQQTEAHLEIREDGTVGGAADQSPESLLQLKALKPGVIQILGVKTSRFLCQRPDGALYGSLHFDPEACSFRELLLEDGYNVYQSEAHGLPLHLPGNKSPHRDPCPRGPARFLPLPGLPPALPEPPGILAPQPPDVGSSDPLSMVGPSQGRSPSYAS")
6

Then this molecule:
[Q] Recorded +(2) H2O of L4-FGF21ΔH-A129C: Linker-4 conjugated to FGF21ΔH-A129C protein (Table 4; Table 5 row L4) (conjugate, UniProt Q9NSA1 29-209, looked up, variant H1* A129C, Linker-4 attached) Fibroblast growth factor 21: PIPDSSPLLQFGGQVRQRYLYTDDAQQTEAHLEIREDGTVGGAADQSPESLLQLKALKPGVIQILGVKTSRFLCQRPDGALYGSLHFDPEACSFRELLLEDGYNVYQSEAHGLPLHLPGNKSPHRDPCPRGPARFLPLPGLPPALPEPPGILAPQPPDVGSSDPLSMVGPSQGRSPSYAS , please.
[A] 6
